# target.of.assay: Muscarinic acetylcholine receptor M4 (Homo sapiens) (UniProt P08173)
# Sequence (P08173 whole entry, looked up): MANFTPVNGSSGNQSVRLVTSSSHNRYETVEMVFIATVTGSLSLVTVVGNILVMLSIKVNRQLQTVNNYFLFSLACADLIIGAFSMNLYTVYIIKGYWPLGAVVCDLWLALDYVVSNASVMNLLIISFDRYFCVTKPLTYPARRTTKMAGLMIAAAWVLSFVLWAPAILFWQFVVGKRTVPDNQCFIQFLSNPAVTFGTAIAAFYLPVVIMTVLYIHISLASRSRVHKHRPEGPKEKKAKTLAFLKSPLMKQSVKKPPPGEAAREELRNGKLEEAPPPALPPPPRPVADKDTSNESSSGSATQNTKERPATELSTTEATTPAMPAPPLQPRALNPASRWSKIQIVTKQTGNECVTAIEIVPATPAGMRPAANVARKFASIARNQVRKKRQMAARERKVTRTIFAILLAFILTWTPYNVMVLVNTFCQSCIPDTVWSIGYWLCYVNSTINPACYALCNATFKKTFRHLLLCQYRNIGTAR
# assay.protocol: compounds altering M4/GIRK thallium flux, either direction, primary screen, M4 allosteric agonist project, cell-based, HEK293 M4/GIRK, BTC-AM (AID 625);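 also: thallium influx through GIRK channels coupled to M4 in HEK293 cells with BTC-AM dye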
# stated.conditions: at 10 µM, actives lie on both sides
Rule: fluorescence slope below 0.005 gives 1, anything at or above gives -1.

| molecule | assigned.label |
| --- | --- |
| CN(C)CCCN1C(=O)C(=O)/C(=C(/O)c2ccccc2)C1c1ccccn1 (stereo unspecified) | 1 |
| COC(=O)COc1ccc(Oc2nc(SC)nc(N(C)C)n2)nn1 | -1 |
| N#Cc1c2c(c(-c3ccco3)[nH]c1=O)CCCC2 | 1 |
| COc1ccc(N2C(=O)C3C(C2=O)C2C=CC3C23CC3)c(OC)c1 (stereo unspecified) | 1 |
| CC(=O)N1CCN(C2c3cccc4cccc(c34)C2NS(=O)(=O)c2ccccc2)CC1 (stereo unspecified) | -1 |
| CC1(C(=O)CSc2ncn[nH]2)CCC(=O)O1 (stereo unspecified) | -1 |
| CCNC(=O)COn1c(SCC(=O)NCC)nc2ccccc2c1=O | -1 |
| C=CCN(CC=C)c1nc2ccccc2nc1C(C#N)C(=O)OC(C)C (stereo unspecified) | 1 |
| CCc1cc(=O)oc2cc(C)c(CN3CCCCC3)c(O)c12 | 1 |
| CNC(=O)CCn1nc(-c2ccccc2)c2ccccc2c1=O | 1 |
| Cc1ccc(N2CC(C(=O)Nc3ccc(N(C)C)cc3)CC2=O)cc1C (stereo unspecified) | 1 |

* * *

# assay.protocol: inhibitors of E-selectin induction by TNFa, primary screen, imaging, HUVEC, immunofluorescence, MLSMR starter and 10KST1 sets (AID 487);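 also: signal is fraction of cell area covered by stained E-selectin grains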
# stated.conditions: HUVEC TNFalpha-induced E-selectin immunofluorescence imaging, at 2 µM; stronger effect = higher value

| molecule | unit.annotation | inhibition |
| --- | --- | --- |
| COCCNC(=O)C(C#N)c1nc2ccccc2nc1N1CCN(Cc2ccc3c(c2)OCO3)CC1 (stereo not given) | % | 11.8 |
| CCOC(=O)C(O)(C1C(=O)CC(C)(C)CC1=O)C(F)(F)F (stereo not given) | % | -174 |
| COc1ccc(Cc2noc(-c3ccc(C)cc3)n2)cc1 | % | -304 |
| CCOC(=O)c1ccc(NC(=O)Nc2ccn(C)n2)cc1 | % | -23.7 |
| CN(CC(=O)Nc1nccs1)S(=O)(=O)c1ccc(F)cc1 | % | -35.4 |
| O=C(Nc1ncccc1Cl)c1cccc(F)c1 | % | 19.5 |
| Clc1ccc(-n2ncc3c(NCc4cccs4)ncnc32)cc1 | % | -52.5 |
| COC(=O)c1ccccc1NC(=O)Cn1ccnc1 | % | -12 |
| O=c1cc(-c2ccco2)nc(-c2cccs2)o1 | % | 7.4 |
| CCCc1cc(Nc2c(C)n(C)n(-c3ccccc3)c2=O)n2c(nc3ccccc32)c1C#N | % | -170 |
| Cc1ccc(CSC2=NCCN2C(=O)c2ccco2)cc1 | % | -11.6 |
| COC(=O)c1[nH]c2cc(OC)ccc2c1NC(=O)CN1CCN(c2cccc(C)c2)C(C)C1 (stereo not given) | % | -108 |
| CC(C)Nc1ncnc2c1cnn2-c1ccccc1 | % | -1.2 |
| CC1(C)Cc2c(c(N3CCOCC3)nc3sc4c(NCc5ccco5)nnnc4c23)CS1 | % | -6.5 |
| CC(=O)c1c(C)[nH]c(C(=O)Nc2c(C)n(C)n(-c3ccccc3)c2=O)c1C | % | -137 |
| COc1ccc(C(=O)c2oc3nc(C)cc(C)c3c2N)cc1 | % | 7.4 |
| Cc1csc(NC(=O)c2cc3c(s2)-c2ccccc2OC3)n1 | % | -27.8 |
| Cc1cccn2c(=O)c3cc(C(N)=S)c(=N)n(CCCOC(C)C)c3nc12 | % | -92.7 |
| COc1ccc(NS(=O)(=O)c2ccc(NC(C)=O)cc2)cc1OC | % | -3.3 |
| COCc1[nH]nc2c1C(c1sccc1C)C(C#N)=C(N)O2 (stereo not given) | % | -22.2 |
| O=C(/C=N/O)NCc1ccncc1 | % | 28.2 |
| Cc1cc2cc(CN(CCCN3CCOCC3)C(=O)NC3CCCCC3)c(=O)[nH]c2cc1C | % | 0.4 |
| CN(C)c1ccnc(NCc2ccccc2)c1C#N | % | -62 |
| COc1ccc(Cl)cc1N1CC(c2nc3ccccc3[nH]2)CC1=O (stereo not given) | % | 1.9 |
| O=C(Cn1cnc2ccccc2c1=O)NCCC(=O)N1CCN(c2ccccc2)CC1 | % | 12.8 |
| CC1CCN(C(=O)CN2C(=O)C(C)(C)Oc3ccc(C(=O)NC4CCCC4)cc32)CC1 | % | -83.6 |
| CC1(C)Cc2c(c(-c3ccco3)[nH]c(=O)c2C#N)CS1 | % | -101 |
| C=C(C)Cn1c(-c2ccc(OC)cc2)nc2ccccc21 | % | -113 |
| CC1(C)CC(=O)C(C=NCCN2CCN(CCc3ccccc3)CC2)=C(O)C1 | % | -22.3 |
| O=C(OCc1cc2ccccc2[nH]c1=O)c1ccco1 | % | 40.8 |
| Cc1cccc(NC(=O)c2c(C)cc(=O)oc2C)n1 | % | 26.4 |
| Cc1cccc(-n2c(=O)cc(N3CCN(c4ccc(F)cc4)CC3)[nH]c2=O)c1 | % | 15.8 |
| CC1Cn2c(nnc2-c2ccc(F)cc2)S1 (stereo not given) | % | -40 |
| CC(C)C(NC(=O)c1ccc(S(=O)(=O)N2CCOCC2)cc1)c1nc2ccccc2[nH]1 (stereo not given) | % | 8.4 |
| Cc1ccc2cc(CN(Cc3ccc4c(c3)OCO4)Cc3nnnn3Cc3ccco3)c(=O)[nH]c2c1C | % | -79.9 |
| CC1CCN(S(=O)(=O)c2cn(CC(=O)N3CCN(C)CC3)c(=O)c3ccccc23)CC1 | % | -28.3 |
| FC(F)(F)c1cccc(-n2cccc2/C=N/n2cnnc2)c1 | % | 39.9 |
| COc1ccc(C)cc1NC(=O)CCC(=O)Nc1ccc2nc(N3CCN(C)CC3)cc(C)c2c1 | % | -62.6 |
| Cc1ccccc1NC(=O)CN1CCC(NC(=O)Nc2ccccc2)CC1 | % | -121 |
| Nc1nnnn1/N=C/c1ccco1 | % | -8.3 |
| Cc1ccccc1COc1ccc(/C(O)=C2/C(=O)C(=O)N(CCCn3ccnc3)C2c2ccco2)cc1 (stereo not given) | % | -23.1 |
| Cc1nn(CC(=O)N2CCOCC2)c(=O)c2ccccc12 | % | -72.8 |
| Cc1ccc(Cl)cc1N1CCN(C(=O)C2CCCN(S(=O)(=O)c3cnc[nH]3)C2)CC1 (stereo not given) | % | -74.4 |
| CCCc1cc(=O)oc2c(CN3CCCC3)c(O)ccc12 | % | -11.6 |
| CCOc1ccccc1C(=O)NC(C)c1ccc2c(c1)OCO2 (stereo not given) | % | -6.7 |

* * *

# assay.protocol: inhibitors of poly I:C-induced TLR3 signaling, primary screen, cell-based, poly I:C stimulus, luciferase, 10K MLSCN set (AID 602277)
# stated.conditions: HEK293-TLR3 RL24 IRF3 luciferase reporter, at 10 µM, stronger effect = higher value
quantity.kind: inhibition (%)

| compound | quantity.kind | unit.annotation | numeric.value |
| --- | --- | --- | --- |
| CCCn1c(C)cc(C(=O)COc2ncnc3sccc23)c1C | inhibition | % | -108 |
| COc1ccc(C(C)N2CC34C=CC(O3)C(C(=O)OCC(C)C)C4C2=O)cc1 (stereo unspecified) | inhibition | % | 23.7 |
| O=C(COc1ccc(F)cc1Br)N1CCc2ccccc21 | inhibition | % | -100 |
| CCOC(=O)c1c(C)[nH]c(C(=O)COC(=O)c2ccc(F)c(S(=O)(=O)N3CCOCC3)c2)c1C | inhibition | % | 13.3 |
| COCCCN1C(=O)C(=O)/C(=C(/O)c2ccc(OCC(C)C)cc2C)C1c1cccnc1 (stereo unspecified) | inhibition | % | 23.2 |
| O=C(NCCN1CCOCC1)NC1(C(F)(F)F)Oc2ccc(Cl)cc2O1 (stereo unspecified) | inhibition | % | 37.9 |
| O=C(COC(=O)C1CC1)c1c[nH]c2ccccc12 | inhibition | % | -96.8 |
| Cc1nnc(SCC(=O)Nc2nccs2)s1 | inhibition | % | -7.69 |
| COc1ccc(C(=O)Nn2c(C3CCC3)nc3ccccc3c2=O)c(OC)c1 | inhibition | % | 5.08 |
| COc1ccccc1Oc1ccc(S(=O)(=O)N2CCOCC2)cc1S(=O)(=O)N1CCOCC1 | inhibition | % | 1.69 |
| COc1ccccc1N1C(=O)c2ccccc2NC1c1ccncc1 (stereo unspecified) | inhibition | % | 5.74 |

* * *

# assay.protocol: inhibitors of E-selectin induction by TNFa, primary screen, imaging, HUVEC, immunofluorescence, MLSMR starter and 10KST1 sets (AID 487);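 also: signal is fraction of cell area covered by stained E-selectin grains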
# stated.conditions: HUVEC TNFalpha-induced E-selectin immunofluorescence imaging, at 2 µM; stronger effect = higher value
Please note: condition met applies when inhibition is -30% or greater, and condition not met applies otherwise.

| molecule | assigned.label |
| --- | --- |
| Cc1ccccc1-n1c(Cn2c(=O)sc3ccccc32)nnc1SCC(=O)N1CCCC1 | condition not met |
| NC(=O)NC(c1ccccc1)c1ccccc1F (stereo unspecified) | condition met |
| Cn1c(=O)c2c(nc(CN3CCN(Cc4ccccc4)CC3)n2Cc2cccc(Cl)c2)n(C)c1=O | condition met |
| CCOc1ccc(N=C2C(=O)N(CN3CCOCC3)c3ccccc32)cc1 | condition not met |
| CCN=C1SC(CC(=O)Nc2ccccc2)C(=O)N1CC (stereo unspecified) | condition not met |
| c1ccc(CNc2ncnc3ccccc23)cc1 | condition not met |
